Collected Skeletal EC25 values appear next to each entry.
- Tested on: Rabbit Psoas myofibrils (skeletal myosin ATPase)
- ASSAY NOTES: Myofibril ATPase assay, rabbit psoas (skeletal) myofibrils
- Assay type: biochemical
- CONDITION LABEL: ‡ Y125 value, not a Y75 value (125% activity relative to no compound); rabbit psoas myofibrils

Some solved cases for reference:
stdin: Entry C[C@H](NC(=O)Cc1cc2ccc(F)cc2[nH]c1=O)c1ncc(C#N)cn1 (single isomer, unassigned) : reported Skeletal EC25 = ?
stdout: 100.00‡ μM

stdin: State the recorded Skeletal EC25 for this entry: C[C@H](NC(=O)C(F)(F)c1cc2cc(F)ccc2[nH]c1=O)c1nccc(C#N)n1 (single isomer, unassigned)
stdout: 61.98‡ μM

stdin: # query: Skeletal EC25 of entry C[C@H](C(=O)N[C@H](C)c1ncc(C#N)cc1F)c1cc2c(F)c(F)ccc2[nH]c1=O (single isomer, unassigned)
stdout: 100.00‡ μM

stdin: Which Skeletal EC25 value is on record for Cc1c(C2(C(=O)N[C@H](C)c3nccc(C#N)n3)CC2)c(=O)[nH]c2ccc(F)c(F)c12 (single isomer, unassigned) ?
stdout: 94.41‡ μM

stdin: If you can, please state the reported Skeletal EC25 value of C[C@H](NC(=O)C(F)(F)c1cc2cc(F)ccc2[nH]c1=O)c1cccc(C#N)n1 (single isomer, unassigned) .
stdout: 75.10‡ μM

New cases:
stdin: Can you share its Skeletal EC25? I mean this compound: C[C@H](NC(=O)C1(c2cc3c(F)c(F)ccc3[nH]c2=O)CC1)c1cc(C#N)ccn1 (single isomer, unassigned)
stdout: 100.00‡ μM

stdin: Please report the recorded Skeletal EC25 for Cc1c(C2(C(=O)N[C@@H](C)c3nccc(C#N)n3)CC2)c(=O)[nH]c2ccc(F)c(F)c12 (single isomer, unassigned) .
stdout: 85.63‡ μM

stdin: Query: Skeletal EC25; subject: Cc1c(F)ccc2[nH]c(=O)c(C(F)(F)C(=O)N[C@@H](C)c3ncc(C#N)cn3)c(C#N)c12 (single isomer, unassigned)
stdout: 100.00‡ μM
